For each record, write down the corresponding Emax.
test system: MOLT-4; experiment: cells; format: cell-based; conditions: Homo sapiens, MOLT-4, 72 h, read-out: MI%
Numbers only, in %.

compound | Emax, %
C[C@H](NP(=O)(Oc1ccccc1)O[C@@H]1C[C@@H](COP(=O)(N[C@H](C)C(=O)OCc2ccccc2)Oc2ccccc2)O[C@H]1n1cnc2c(N)ncnc21)C(=O)OCc1ccccc1 (some centres unmarked) | 75
C[C@H](NP(=O)(Oc1cccc2ccccc12)O[C@@H]1C[C@@H](COP(=O)(N[C@H](C)C(=O)OCc2ccccc2)Oc2cccc3ccccc23)O[C@H]1n1cnc2c(N)ncnc21)C(=O)OCc1ccccc1 (some centres unmarked) | 100
C[C@H](NP(=O)(N[C@@H](C)C(=O)OCc1ccccc1)OC[C@@H]1C[C@@H](O)[C@H](n2cnc3c(N)ncnc32)O1)C(=O)OCc1ccccc1 | 100
C[C@H](NP(=O)(Oc1ccccc1)O[C@@H]1C[C@@H](CO)O[C@H]1n1cnc2c(N)ncnc21)C(=O)OCc1ccccc1 (some centres unmarked) | 100

## Input Note down Emax recorded for CCOC(=O)CCc1ccccc1OP(=O)(N[C@@H](C)C(=O)OCc1ccccc1)OC[C@@H]1C[C@@H](O)[C@H](n2cnc3c(N)ncnc32)O1 (some centres unmarked)
## Output 97

====

test: Metabolic stability in cryopreserved human hepatocytes; format: in vitro ADME; settings: pooled cryopreserved hepatocytes, pH 7.3, read-out: t1/2 (half-life)
measurement_name: half-life at 1 h, 1 µM (min)
Give bare numbers, in min.

## Input Note half-life at 1 h, 1 µM for the compound shown: C[C@H](NP(=O)(OC[C@@H]1C[C@@H](O)[C@H](n2cnc3c(N)ncnc32)O1)Oc1ccccc1)C(=O)OCc1ccccc1 (stereo partly shown) [Compound 7a]
## Output 48.1

====

Give CC50 for every item shown.
test system: SW620; assay: cells; assay type: cell-based; settings: Homo sapiens, SW-620, 72 h, read-out: LC50

Sample answers from the record:
molecule | test_result
C[C@H](N[P@@](=O)(OC[C@@H]1C[C@@H](O)[C@H](n2cnc3c(N)ncnc32)O1)Oc1ccccc1)C(=O)OCc1ccccc1 | 29 µM
C[C@H](NP(=O)(OC[C@@H]1C[C@@H](O)[C@H](n2cnc3c(N)ncnc32)O1)Oc1ccccc1)C(=O)OCc1ccccc1 (stereo partly drawn) | 24.9 µM

Would you kindly look at the next entry?
## Input Indicate its recorded CC50; the molecule in question is Nc1ncnc2c1ncn2[C@@H]1O[C@H](CO)C[C@H]1O [3′-dA, 3′-Deoxyadenosine, reference compound]
## Output > 198 µM

====

I'd appreciate it if you could supply log10(CC50) values for the items below.
test system: HT29; experiment: cells; assay type: cell-based; conditions: Homo sapiens, HT-29, 72 h, read-out: lC50
Please interpret these as log10 of CC50 where CC50 is in µM.

Take a look at these entries with their results.
molecule | log10(CC50)
CC(=O)O[C@H]1C(=O)[C@@]2(C)[C@H]([C@H](OC(=O)c3ccccc3)[C@]3(O)C[C@H](OC(=O)[C@H](O)[C@@H](NC(=O)c4ccccc4)c4ccccc4)C(C)=C1C3(C)C)[C@]1(OC(C)=O)CO[C@@H]1C[C@@H]2O [PTX, paclitaxel, reference compound] | -2.40
C[C@H](NP(=O)(OC[C@@H]1C[C@@H](O)[C@H](n2cnc3c(N)ncnc32)O1)Oc1ccccc1)C(=O)OCc1ccccc1 (stereo partly drawn) | 1.13
C[C@H](N[P@@](=O)(OC[C@@H]1C[C@@H](O)[C@H](n2cnc3c(N)ncnc32)O1)Oc1ccccc1)C(=O)OCc1ccccc1 | 1.20

Give log10(CC50) for each of the items listed below.
1. CCOC(=O)CCc1ccccc1OP(=O)(N[C@@H](C)C(=O)OCc1ccccc1)OC[C@@H]1C[C@@H](O)[C@H](n2cnc3c(N)ncnc32)O1 (stereo partly drawn)
2. C[C@H](N[P@](=O)(OC[C@@H]1C[C@@H](O)[C@H](n2cnc3c(N)ncnc32)O1)Oc1ccccc1)C(=O)OCc1ccccc1

## Output
[1.40, 1.40]
